Biological target: motilin receptors located on the colon of mature rabbits (Oryctolagus cuniculus)
Construct: The colon from mature New Zealand rabbits was removed, dissected free from the mucosa and serosa layers, and diced into small pieces; from tissue; host or cells: colon smooth muscle of mature New Zealand rabbits, crude membrane homogenate
Sequence (G1T803 1-400): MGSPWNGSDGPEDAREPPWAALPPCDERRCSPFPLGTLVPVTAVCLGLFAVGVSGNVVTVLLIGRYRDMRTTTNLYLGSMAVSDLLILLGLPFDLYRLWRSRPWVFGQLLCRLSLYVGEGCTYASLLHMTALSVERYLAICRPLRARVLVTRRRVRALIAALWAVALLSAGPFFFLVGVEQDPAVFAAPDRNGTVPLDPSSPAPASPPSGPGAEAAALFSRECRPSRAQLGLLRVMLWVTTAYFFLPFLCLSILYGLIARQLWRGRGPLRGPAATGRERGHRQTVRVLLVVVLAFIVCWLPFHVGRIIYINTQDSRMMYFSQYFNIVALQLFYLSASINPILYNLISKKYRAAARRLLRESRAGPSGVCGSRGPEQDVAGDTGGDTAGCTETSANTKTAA
Assay: competition with radiolabeled (125I) porcine motilin for the motilin receptors of rabbit colon
Type: binding
Details: rabbit colon, 125I motilin; read-out: IC50 (unit inferred)
pIC50: −log10 of the molar value.
measured_parameter: pIC50

[[record]]
molecule = "CC(=O)N(CC1=CC(Cc2ccccc2)(NC(=O)C(Cl)(Cl)Cl)CC1)c1cccc(OCCN2CCOCC2)c1 (stereo not drawn) [Compound 78]"
test_result = 5.99

[[record]]
molecule = "O=C(NC1(Cc2ccccc2)C=C(CN(CCN2CCOCC2)Cc2cccc(OCCN3CCOCC3)c2)CC1)C(Cl)(Cl)Cl (stereo not drawn) [Compound 57]"
test_result = 6.15

[[record]]
molecule = "CCN(CC)CCN(CC1=CC(Cc2ccccc2)(NC(=O)C(Cl)(Cl)Cl)CC1)c1cccc(OCCCN2CCCCC2)c1 (stereo not drawn) [Compound 54]"
test_result = 6.05


* * *

Each entry below lists one item and its recorded inhibition at 1 µM value.
Molecular target: motilin receptors located on the colon of mature rabbits (Oryctolagus cuniculus)
Construct: The colon from mature New Zealand rabbits was removed, dissected free from the mucosa and serosa layers, and diced into small pieces; from tissue; host or cells: colon smooth muscle of mature New Zealand rabbits, crude membrane homogenate
Experiment: competition with radiolabeled (125I) porcine motilin for the motilin receptors of rabbit colon
Type: binding
Settings: @ 1.0 μM
measured_parameter: inhibition at 1 µM (%)

[[record]]
molecule = "CC(=O)NC1(Cc2ccccc2)C=C(CN(C(=O)c2ccc(F)cc2)c2cccc(OCCN3CCOCC3)c2)CC1 (stereo not drawn)"
test_result = 51

[[record]]
molecule = "CC(C)C1(NC(=O)C(Cl)(Cl)Cl)C=C(CN(C(=O)Nc2ccccc2)c2cccc(OCCN3CCOCC3)c2)CC1 (stereo not drawn)"
test_result = 51

[[record]]
molecule = "O=C(Oc1ccccc1)N(CC1=CC(Cc2ccccc2)(NC(=O)C(Cl)(Cl)Cl)CC1)c1cccc(OCCN2CCOCC2)c1 (stereo not drawn)"
test_result = 51

[[record]]
molecule = "O=C(C(c1ccccc1)c1ccccc1)N(CC1=CC(Cc2ccccc2)(NC(=O)C(Cl)(Cl)Cl)CC1)c1cccc(OCCN2CCOCC2)c1 (stereo not drawn)"
test_result = 42

[[record]]
molecule = "O=C(Nc1ccccc1)N(CC1=CC(Cc2ccccc2)(NC(=O)C(Cl)(Cl)Cl)CC1)c1cccc(CCCN2CCOCC2)c1 (stereo not drawn)"
test_result = 59

[[record]]
molecule = "O=C(Nc1cccc(Br)c1)N(CC1=CC(Cc2ccccc2)(NC(=O)C(Cl)(Cl)Cl)CC1)c1cccc(OCCN2CCOCC2)c1 (stereo not drawn)"
test_result = 51

